experimentalSystem: HCV polymerase (NS5B570n-Con1) (Hepatitis C virus genotype 1b, UniProt Q9WMX2)
Construct: contains a 21 amino acid deletion at the C-terminus relative to the full-length HCV polymerase; 6-histidine (N); made in house; host or cells: E. coli strain BL21(DE) pLysS (pET17b)
assayProcedure: biochemical
Design: species or system HCV Con1 strain
reportedConditions: IC50 HCV NS5B RNA Polymerase Assay, values without asterisk; 20 nM NS5B570n-Con1 enzyme, 20 nM cIRES RNA template
propertyName: pIC50
One number for each entry, as −log10 of the molar value.

Look over these answered cases.
{"columns": ["compound", "propertyName", "quantitativeResult"],
 "data": [
  ["COc1cc(-c2ccc[nH]c2=O)cc(C(C)(C)C)c1OC [I-26]", "pIC50", 6.06],
  ["COc1c(C(=O)Nc2ccc(N(C)C)cc2)cc(-c2ccc[nH]c2=O)cc1C(C)(C)C [I-41]", "pIC50", 5.82],
  ["CCc1cc(-c2ccc[nH]c2=O)cc(C(C)(C)C)c1OC [I-30]", "pIC50", 6.14],
  ["COc1c(NC(=O)c2ccc(NCC(F)(F)F)cc2)cc(-c2ccc[nH]c2=O)cc1C(C)(C)C [I-253]", "pIC50", 8.70],
  ["COc1c(C(=O)c2cccc(CNS(C)(=O)=O)c2)cc(-c2ccc[nH]c2=O)cc1C(C)(C)C [I-65]", "pIC50", 7.52]
]}

Turning now to a further record.
query: Look at this compound and give its reported pIC50. COc1c(/C=C/c2ccc(NS(C)(=O)=O)cc2C#N)cc(-c2cc(F)c[nH]c2=O)cc1C(C)(C)C [I-151]
result: 8.30

###

So I've got a bunch of compounds here, and I need their pIC50 values.
experimentalSystem: HCV polymerase (NS5B570n-Con1) (Hepatitis C virus genotype 1b, UniProt Q9WMX2)
Construct: contains a 21 amino acid deletion at the C-terminus relative to the full-length HCV polymerase; 6-histidine (N); made in house; host or cells: E. coli strain BL21(DE) pLysS (pET17b)
assayProcedure: biochemical
Design: species or system HCV Con1 strain
reportedConditions: IC50 HCV NS5B RNA Polymerase Assay, values without asterisk; 20 nM NS5B570n-Con1 enzyme, 20 nM cIRES RNA template
Answers are plain numbers, as −log10 of the molar value.

# count of solved cases: 2
{"columns": ["compound", "experimentalSystem", "pIC50"],
 "data": [
  ["COc1c(C(=O)c2cccc(CN)c2)cc(-c2ccc[nH]c2=O)cc1C(C)(C)C", "HCV polymerase (NS5B570n-Con1) (Hepatitis C virus genotype 1b, UniProt Q9WMX2)", 7.62],
  ["COc1c(C(=O)NCC(C)c2ccccc2)cc(-c2ccc[nH]c2=O)cc1C(C)(C)C (stereo not drawn)", "HCV polymerase (NS5B570n-Con1) (Hepatitis C virus genotype 1b, UniProt Q9WMX2)", 5.91]
]}

query: Request: pIC50, test system HCV polymerase (NS5B570n-Con1) (Hepatitis C virus genotype 1b, UniProt Q9WMX2), entry COc1c(C(=O)NC2CCCN(C)C2)cc(-c2ccc[nH]c2=O)cc1C(C)(C)C (stereo not drawn);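 further: recombinant His-tagged enzyme from E. coli, radiolabeled nucleotide incorporation into acid-insoluble RNA read by scintillation after filtration, no-enzyme background subtracted, activity relative to positive control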
result: 5.74

###

Give melting point for every item shown.

// known answers, use as guide
{"columns": ["compoundSmiles", "result"],
 "data": [
  ["COc1c(CCc2ccc(NS(C)(=O)=O)cn2)cc(-c2ccc[nH]c2=O)cc1C(C)(C)C", "131 to 133 °C"],
  ["COc1c(C(=O)Nc2ccc(CNS(C)(=O)=O)cc2)cc(-c2ccc[nH]c2=O)cc1C(C)(C)C", "213 to 216 °C"],
  ["CC(C)(C)c1cc(-c2ccc[nH]c2=O)cc(NC(=O)c2ccc(NS(C)(=O)=O)cc2)c1F", "286 to 288 °C"]
]}

Could you now look at the following compound, please?
query: Find the recorded melting point belonging to "COc1c(CCc2ccc(NS(C)(=O)=O)cc2)cc(-c2cc(F)c[nH]c2=O)cc1C(C)(C)C" and report it.
result: 125 to 130 °C
